assay: Oral bioavailability in Sprague-Dawley rat at 5 mg/kg measured after 24 hrs; format: ADME, organism-based; conditions: in vivo
Assay Endpoint: bioavailability (%)
Kindly provide the numeric value in % only, without the unit symbol.

IN: Annotate the compound CCN1C(=O)N(c2c(F)c(OC)cc(OC)c2F)Cc2cnc3c(c21)CC(=O)N3 with its measured bioavailability.
OUT: 17

* * *

biological target: Cytochrome P450 2C19 (Homo sapiens)
Sequence (P33261 whole entry): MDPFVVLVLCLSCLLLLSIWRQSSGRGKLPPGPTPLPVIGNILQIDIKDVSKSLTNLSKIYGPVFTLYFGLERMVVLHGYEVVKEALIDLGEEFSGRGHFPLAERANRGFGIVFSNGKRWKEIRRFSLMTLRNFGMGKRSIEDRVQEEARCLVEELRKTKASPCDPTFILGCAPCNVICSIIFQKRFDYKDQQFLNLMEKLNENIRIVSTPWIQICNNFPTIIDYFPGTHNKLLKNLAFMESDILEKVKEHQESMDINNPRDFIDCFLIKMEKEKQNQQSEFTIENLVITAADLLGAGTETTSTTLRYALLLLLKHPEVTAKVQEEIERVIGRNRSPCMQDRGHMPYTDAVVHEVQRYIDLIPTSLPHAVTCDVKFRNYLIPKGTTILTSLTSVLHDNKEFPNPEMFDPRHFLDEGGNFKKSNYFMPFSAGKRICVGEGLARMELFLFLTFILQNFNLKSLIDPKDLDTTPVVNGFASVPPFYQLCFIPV
Assay Endpoint: IC50

IN: Quickly give me recorded IC50 for CCN1C(=O)N(c2c(F)c(OC)cc(OC)c2F)Cc2cnc3c(c21)CC(=O)N3
OUT: > 25 µM

* * *

assay: Oral bioavailability in Sprague-Dawley rat at 2 mg/kg administered as cassette dose measured after 24 hrs; assay type: ADME, organism-based; settings: in vivo
Assay Endpoint: bioavailability (%)
Write the answer as a number in %, unit excluded.

COc1cc(OC)c(F)c(N2Cc3cnc4[nH]c(C(=O)N(C)C)cc4c3N(C)C2=O)c1F    46
COc1cc(OC)c(F)c(N2Cc3cnc4[nH]ccc4c3N(CCN3CCN(C)CC3)C2=O)c1F    14
COc1cc(OC)c(F)c(N2Cc3cnc4[nH]ccc4c3N(CCO)C2=O)c1F    50
COc1cc(OC)c(F)c(N2Cc3cnc4[nH]c(CN5CCOCC5)cc4c3N(C)C2=O)c1F    100
CCN1CCN(CCc2cc3c4c(cnc3[nH]2)CN(c2c(F)c(OC)cc(OC)c2F)C(=O)N4C)CC1    6
COc1cc(OC)c(F)c(N2Cc3cnc4[nH]c(C5CCN(C)CC5)cc4c3N(C)C2=O)c1F    15

IN: Please report bioavailability for the following compound: COc1cc(OC)c(F)c(N2Cc3cnc4c(c3N(C)C2=O)CC(=O)N4)c1F
OUT: 74

IN: # return recorded bioavailability for entry COc1cc(OC)c(F)c(N2Cc3cnc4[nH]ccc4c3N(C)C2=O)c1F
OUT: 58

* * *

biological target: UniProt:P35968; assay: Inhibition of VEGFR2 (unknown origin) incubated for 90 mins in presence of ATP by HTRF assay
Sequence (P35968 whole entry): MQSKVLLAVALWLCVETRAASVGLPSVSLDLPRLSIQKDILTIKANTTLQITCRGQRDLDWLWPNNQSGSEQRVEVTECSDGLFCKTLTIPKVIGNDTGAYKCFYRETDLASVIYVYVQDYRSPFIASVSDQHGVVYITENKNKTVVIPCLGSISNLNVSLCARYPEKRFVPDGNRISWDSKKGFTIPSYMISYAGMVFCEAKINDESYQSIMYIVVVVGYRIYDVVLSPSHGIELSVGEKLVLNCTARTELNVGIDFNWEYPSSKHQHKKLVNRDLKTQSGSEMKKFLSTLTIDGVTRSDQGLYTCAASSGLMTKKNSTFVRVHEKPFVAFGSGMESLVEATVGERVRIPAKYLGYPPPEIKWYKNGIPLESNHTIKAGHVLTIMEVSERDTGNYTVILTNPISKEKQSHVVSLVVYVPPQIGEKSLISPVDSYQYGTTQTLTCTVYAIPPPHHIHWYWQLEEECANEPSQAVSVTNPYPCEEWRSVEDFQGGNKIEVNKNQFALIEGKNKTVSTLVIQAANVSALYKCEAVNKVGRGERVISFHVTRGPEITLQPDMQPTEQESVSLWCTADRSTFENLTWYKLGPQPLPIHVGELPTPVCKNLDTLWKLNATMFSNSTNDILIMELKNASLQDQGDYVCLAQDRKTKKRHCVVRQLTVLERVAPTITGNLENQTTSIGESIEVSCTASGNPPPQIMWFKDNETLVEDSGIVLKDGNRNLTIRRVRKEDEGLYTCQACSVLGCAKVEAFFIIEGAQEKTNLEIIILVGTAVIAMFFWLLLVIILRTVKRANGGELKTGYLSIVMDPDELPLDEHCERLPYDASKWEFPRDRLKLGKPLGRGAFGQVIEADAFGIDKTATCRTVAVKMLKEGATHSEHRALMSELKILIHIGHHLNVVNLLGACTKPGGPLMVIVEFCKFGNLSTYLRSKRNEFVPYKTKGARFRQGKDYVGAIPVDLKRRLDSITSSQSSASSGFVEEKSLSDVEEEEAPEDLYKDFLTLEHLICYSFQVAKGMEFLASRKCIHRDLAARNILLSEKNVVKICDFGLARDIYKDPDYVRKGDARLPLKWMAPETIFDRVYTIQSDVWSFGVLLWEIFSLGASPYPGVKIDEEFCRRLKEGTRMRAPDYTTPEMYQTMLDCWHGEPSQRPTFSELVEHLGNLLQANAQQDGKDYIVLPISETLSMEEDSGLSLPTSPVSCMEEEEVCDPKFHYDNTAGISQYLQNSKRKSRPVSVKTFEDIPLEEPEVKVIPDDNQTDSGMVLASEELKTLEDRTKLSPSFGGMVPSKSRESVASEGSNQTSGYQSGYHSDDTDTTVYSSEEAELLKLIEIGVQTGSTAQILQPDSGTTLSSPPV
Below, each entry is listed with its recorded IC50.
Respond with the bare value in nM.

CCN1C(=O)N(c2c(F)c(OC)cc(OC)c2F)Cc2cnc3c(c21)CC(=O)N3    288

IN: Indicate its recorded IC50; the compound in question is COc1cc(OC)c(F)c(N2Cc3cnc4[nH]c(-c5cnn(C)c5)cc4c3N(C)C2=O)c1F
OUT: 1.3

* * *

assay: AUC in cynomolgus monkey at 2 mg/kg, po or 1 mg/kg, iv administered as cassette dose measured after 24 hrs; type: ADME, organism-based, Macaca fascicularis; parameters: time 24 hrs, dose 2 mg/kg; settings: in vivo
The following compounds are shown together with reported AUC at 24 h values.
Give the value in µM·h but do not write µM·h after it.

Here are 5 compounds together with their reported answers.
COc1cc(OC)c(F)c(N2Cc3cnc4[nH]ccc4c3N(C)C2=O)c1F    1.69
COc1cc(OC)c(F)c(N2Cc3cnc4[nH]c(C(=O)N(C)C)cc4c3N(C)C2=O)c1F    0.07
CCN1C(=O)N(c2c(F)c(OC)cc(OC)c2F)Cc2cnc3[nH]ncc3c21    2.64
COc1cc(OC)c(F)c(N2Cc3cnc4[nH]ccc4c3N(CCO)C2=O)c1F    0.504
COc1cc(OC)c(F)c(N2Cc3cnc4[nH]cnc4c3N(C)C2=O)c1F    0.442

Now take the following compound into account.
IN: // Input: COc1cc(OC)c(F)c(N2Cc3cnc4[nH]c(CN5CCOCC5)cc4c3N(C)C2=O)c1F . Output its AUC at 24 h only.
OUT: 11.8
